Could you please report measured % INHIB (inhibition of human LIM domain kinase 1 mRNA levels) for the items listed next?
Tested on: human LIM domain kinase 1 mRNA
Experiment: Antisense inhibition of human LIM domain kinase 1 mRNA levels, quantitative real-time PCR, A549 cells (screen)
Format: cell-based
Conditions: quantitative real-time PCR, averages from two experiments, screening concentration not given (50 nM to 300 nM used herein)
Strand notation (5' to 3'): a small letter for the sugar, then the base; units joined by * are phosphorothioate-linked, units joined directly phosphodiester-linked; [ ] holds rarer units or linkages, { } end groups; capitals alone tell only the bases. e = 2'-O-(2-methoxyethyl) (MOE); [5mC] = 5-methylcytosine; d = 2'-deoxy (DNA)
Enter your answer as a number in %; do not include the unit.

Problem: # % INHIB (inhibition of human LIM domain kinase 1 mRNA levels) lookup, item 206204 (antisense e[5mC]*eA*eT*eT*e[5mC]*dT*dT*dG*dT*dT*d[5mC]*dT*d[5mC]*dG*d[5mC]*eG*eG*eA*e[5mC]*e[5mC]) [compound 206204]
Result: 81

Problem: Next substance: 206183 (antisense eT*eG*eG*eA*eT*dG*dG*dA*dA*dT*dT*d[5mC]*dT*dT*d[5mC]*eA*e[5mC]*eA*eT*e[5mC]) [compound 206183]
Result: 79

Problem: Quick one: 206233 (antisense eG*eG*eT*e[5mC]*e[5mC]*dT*dT*dG*d[5mC]*dG*d[5mC]*dT*dG*dG*dG*eA*eG*eG*e[5mC]*e[5mC]) [compound 206233]
Result: 80
